test.details: Acid stability (pH 2), remaining antibacterial activity by disc method
Type: physicochemical, Staphylococcus aureus FDA 209P
protocol.conditions: pH 2, Clark-Lubs's buffer, 30 min; read-out: Remaining activity
readout: remaining at 0.5 h (%)
Reply numerically in %, unit not repeated.

# query: remaining at 0.5 h of entry CC[C@H]1OC(=O)[C@H](C)[C@@H](O[C@H]2C[C@@](C)(OC)[C@@H](O)[C@H](C)O2)[C@H](C)[C@@H](O[C@@H]2O[C@H](C)C[C@H](N(C)C)[C@H]2O)[C@](C)(O)C[C@@H](C)C(=O)[C@H](C)[C@@H](O)[C@]1(C)O [Erythromycin A, erythromycin A, reference compound] 0.5

* * *

// remaining at 1 h lookup, one value per entry
test.details: Acid stability (pH 2), remaining antibacterial activity by disc method
Format: physicochemical, Staphylococcus aureus FDA 209P
protocol.conditions: clark-lubs buffer, pH 2
Reply numerically in %, unit not repeated.

[[record]]
item_smiles = "CC[C@H]1OC(=O)[C@H](C)[C@@H](O[C@H]2C[C@@](C)(OC)[C@@H](O)[C@H](C)O2)[C@H](C)[C@@H](O[C@@H]2O[C@H](C)C[C@H](N(C)C)[C@H]2O)[C@](C)(OC)C[C@@H](C)C(=O)[C@H](C)[C@@H](O)[C@]1(C)O"
readout = "remaining at 1 h"
measured_result = 80


// moving on: another record for remaining at 1 h
# query: remaining at 1 h of entry CC[C@H]1OC(=O)[C@H](C)[C@@H](O[C@H]2C[C@@](C)(OC)[C@@H](O)[C@H](C)O2)[C@H](C)[C@@H](O[C@@H]2O[C@H](C)C[C@H](N(C)C)[C@H]2O)[C@](C)(OC)C[C@@H](C)C(=O)[C@H](C)[C@@H](OC)[C@]1(C)O 85
